Overview of recorded MIC for various molecules
- Tested on: Vibrio alginolyticus
- protocol_text: Antibacterial activity against Vibrio alginolyticus QDIO-5 by microplate assay
- Assay type: functional

[
  {
    "molecule": "C=C(CCCC(C)C)c1ccc(C(=O)O)cc1O",
    "target": "Vibrio alginolyticus",
    "MIC": "> 32 µg/mL"
  },
  {
    "molecule": "CC(C)CCC[C@](C)(O)c1ccc(COC(=O)c2ccc([C@@](C)(O)CCCC(C)C)c(O)c2)cc1O",
    "target": "Vibrio alginolyticus",
    "MIC": "> 32 µg/mL"
  }
]

# input for lookup
Reading of MIC for C=C(C)CCC[C@](C)(O)c1ccc(C(=O)O)cc1O [11-DEHYDROSYDONIC ACID] with Vibrio alginolyticus: > 32 µg/mL
